assay: Mouse pharmacokinetics, single dose; format: in vivo, male C57BL/6 mice; settings: male, C57BL/6, mouse, in vivo, iv, 1 mg/kg; read-out: Vss
reported metric: Vd
Please give the number followed by its unit.

Q: Quick one: Vd for CC(C)[C@H](O)c1nc(-c2cnc(N)c(OC(F)(F)F)c2)cn1C12CC(N3CCOCC3)(C1)C2 [Compound 15, reference compound] ?
A: 4.1 L/kg

---

assay: Mouse pharmacokinetics, single dose; assay type: in vivo, male C57BL/6 mice; conditions: mouse, in vivo; male C57BL/6 mice, IV dose 0.3 mg/kg (1a, 4b, 13, 14b, 16; IV dose of 8a, 9b not stated)
Provide the reported clearance of each item.
One number for each entry, in mL/min/kg.

Some entries whose results are on file:
| compound | value unit | quantitative result |
| --- | --- | --- |
| Nc1ncc(-c2cn(C34CC(N5CCOCC5)(C3)C4)c([C@@H](O)C(F)(F)F)n2)cc1OC(F)(F)F [Compound 16, reference compound] | mL/min/kg | 4.4 |
| CC(C)[C@H](O)c1nc(-c2cnc(N)c(C(F)(F)F)c2)cn1C12CC(F)(C1)C2 (single isomer, unassigned) | mL/min/kg | 24.5 |
| CC(C)[C@H](O)c1nc(-c2cnc(N)c(C(F)(F)F)c2)cn1C12CC(C1)C2 [Compound 14b, reference compound] | mL/min/kg | 76.7 |
| Nc1ncc(-c2cn(C34CC(F)(C3)C4)c([C@@H](O)C(F)(F)F)n2)cc1OC(F)(F)F (single isomer, unassigned) | mL/min/kg | 4.3 |
| Nc1ncc(-c2cn(C34CC(C3)C4)c([C@@H](O)C(F)(F)F)n2)cc1OC(F)(F)F [Compound 13, reference compound] | mL/min/kg | 14.1 |
| CC(C)[C@@H](O)c1nc(-c2cnc(N)c(OC(F)(F)F)c2)cn1C12CC(N3CCC(F)(F)CC3)(C1)C2 (single isomer, unassigned) | mL/min/kg | 7 |

Q: Quick one: clearance for Nc1ncc(-c2cn(C34CC(N5CCC(F)(F)CC5)(C3)C4)c([C@H](O)C(F)(F)F)n2)cc1OC(F)(F)F (single isomer, unassigned) ?
A: 3.9

---

assay: Rat pharmacokinetics, single dose; assay type: in vivo, Wistar Han rats; details: rat, in vivo; Wistar Han rats, IV dose 1 mg/kg; read-out: Vss
reported metric: Vd
Please give the number followed by its unit.

Some entries whose results are on file:
| compound | Vd |
| --- | --- |
| Nc1ncc(-c2cn(C34CC(N5CCC(F)(F)CC5)(C3)C4)c([C@H](O)C(F)(F)F)n2)cc1OC(F)(F)F (single isomer, unassigned) [Example 9b] | 4.7 L/kg |
| Nc1ncc(-c2cn(C34CC(F)(C3)C4)c([C@@H](O)C(F)(F)F)n2)cc1OC(F)(F)F (single isomer, unassigned) [Example 1a] | 4.9 L/kg |

Q: Quick one: Vd for Nc1ncc(-c2cn(C34CC(C3)C4)c([C@@H](O)C(F)(F)F)n2)cc1OC(F)(F)F [Compound 13, reference compound] ?
A: 7.9 L/kg

---

assay: Metabolic stability in liver microsomes, human; assay type: in vitro ADME; details: 0.5 mg/mL microsomes, NADPH, 45 minutes, 37° C., read-out: Half-life in liver microsomes (t1/2, minutes)
reported metric: half-life (min)
Answers are plain numbers, in min.

Some entries whose results are on file:
| molecule | reported metric | value unit | quantitative result |
| --- | --- | --- | --- |
| Nc1ncc(-c2cn(C34CC(N5CCC(F)(F)CC5)(C3)C4)c([C@H](O)C(F)(F)F)n2)cc1OC(F)(F)F (single isomer, unassigned) | half-life | min | 297 |
| CC(C)C(O)c1nc(-c2cnc(N)c(C(F)(F)F)c2)cn1C12CC(C1)C2 (stereo not drawn) [Compound 14, reference compound] | half-life | min | 41 |
| Nc1ncc(-c2cn(C34CC(F)(C3)C4)c([C@@H](O)C(F)(F)F)n2)cc1OC(F)(F)F (single isomer, unassigned) | half-life | min | 558 |

Would you mind listing half-life for each of the following molecules?
1. CC(C)[C@H](O)c1nc(-c2cnc(N)c(OC(F)(F)F)c2)cn1C12CC(N3CCOCC3)(C1)C2 [Compound 15, reference compound]
2. Nc1ncc(-c2cn(C34CC(N5CCOCC5)(C3)C4)c([C@@H](O)C(F)(F)F)n2)cc1OC(F)(F)F [Compound 16, reference compound]
3. CC(C)[C@H](O)c1nc(-c2cnc(N)c(C(F)(F)F)c2)cn1C12CC(F)(C1)C2 (single isomer, unassigned)

A:
1: 80; 2: 260; 3: 213
